Each recorded value in this set is attributed to the supplement of paper PMC7877785.

Experiment: self-splicing fitness, log relative to wild type (ln ratio); higher = more splicing; Tetrahymena group I intron in knt gene, E. coli kanamycin selection, DiMSum; sequences stand for … in CUCUCU…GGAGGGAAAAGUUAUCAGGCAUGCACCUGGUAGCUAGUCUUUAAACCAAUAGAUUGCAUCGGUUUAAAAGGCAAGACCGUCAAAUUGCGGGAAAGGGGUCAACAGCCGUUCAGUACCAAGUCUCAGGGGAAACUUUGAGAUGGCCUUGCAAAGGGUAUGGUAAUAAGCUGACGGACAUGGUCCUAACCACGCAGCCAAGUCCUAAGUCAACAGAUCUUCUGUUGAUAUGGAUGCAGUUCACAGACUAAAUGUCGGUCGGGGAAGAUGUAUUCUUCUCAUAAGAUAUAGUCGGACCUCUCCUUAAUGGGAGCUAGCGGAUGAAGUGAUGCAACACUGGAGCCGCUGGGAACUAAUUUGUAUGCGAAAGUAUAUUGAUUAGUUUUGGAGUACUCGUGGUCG;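 note: selection with 25 µg/mL kanamycin versus none on LB agar overnight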
Conditions: 37 °C
self-splicing fitness (ln) values by entry
metric name: self-splicing fitness (ln)

UGGCAGCAAUAUUACGGGAG	-1.15
AAACAGCAAUAUUACGAUCU	0.138
GUAUAGCAAUAUUACGUGCU	-1.91
UCGCAGCAAUAUUACGGCAA	0.0609
GGUGAGCAAUAUUACGGCAA	-1.28
AGGGAGCAAUAUUACGGCAU	-2.46
CAGUAGCAAUAUUACGCAGU	-2.33
UCGGAGCAAUAUUACGAGCG	-0.586
AUUUAGCAAUAUUACGUGGU	-2.45
CAAGAGCAAUAUUACGUGAG	-0.683
ACCUAGCAAUAUUACGCCCU	-0.462
GGGUAGCAAUAUUACGCUGG	-2.45
AAUAAGCAAUAUUACGGGCG	-0.752
UUGAAGCAAUAUUACGCUCG	0.419
ACAUAGCAAUAUUACGCCUU	-0.057
ACACAGCAAUAUUACGCUGG	-1.33

====

Assay: self-splicing fitness, log relative to wild type (ln ratio); higher = more splicing; Tetrahymena group I intron in knt gene, E. coli kanamycin selection, DiMSum; sequences stand for … in CUCUCU…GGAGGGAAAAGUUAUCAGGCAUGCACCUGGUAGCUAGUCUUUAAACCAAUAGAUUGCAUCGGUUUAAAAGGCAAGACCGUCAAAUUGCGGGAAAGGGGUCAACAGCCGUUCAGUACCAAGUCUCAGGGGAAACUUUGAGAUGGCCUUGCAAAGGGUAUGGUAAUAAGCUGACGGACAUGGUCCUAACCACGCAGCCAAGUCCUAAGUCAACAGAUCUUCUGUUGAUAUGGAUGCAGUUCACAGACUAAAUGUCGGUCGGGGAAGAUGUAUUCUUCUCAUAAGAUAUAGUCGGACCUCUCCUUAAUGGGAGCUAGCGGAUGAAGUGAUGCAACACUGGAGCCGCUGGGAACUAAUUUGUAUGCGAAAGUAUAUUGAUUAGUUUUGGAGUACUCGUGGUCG
Settings: 37 °C
Respond with condition met for self-splicing fitness (ln) values of -0.9 and above, condition not met for values below.

AUAUAGCAAUAUUACGGGCA	condition not met
CCAUAGCAAUAUUACGUAAU	condition not met
UUAGAGCAAUAUUACGCCAA	condition met
CACUAGCAAUAUUACGGAGC	condition not met
ACAUAGCAAUAUUACGCUGC	condition met
CAGGAGCAAUAUUACGUGAA	condition not met
AGAAAGCAAUAUUACGUCCU	condition met
GUACAGCAAUAUUACGGAAG	condition not met
GAUUAGCAAUAUUACGUAGA	condition not met
CACAAGCAAUAUUACGAGGU	condition not met
GCGAAGCAAUAUUACGUGUA	condition not met
ACCCAGCAAUAUUACGAGGG	condition not met
UUCAAGCAAUAUUACGAUGA	condition met
UAUCAGCAAUAUUACGGUAU	condition not met
CAAAAGCAAUAUUACGCUCA	condition met
CCUAAGCAAUAUUACGCAUC	condition not met

====

Experiment: self-splicing fitness, log relative to wild type (ln ratio); higher = more splicing; Tetrahymena group I intron in knt gene, E. coli kanamycin selection, DiMSum; sequences stand for … in CUCUCU…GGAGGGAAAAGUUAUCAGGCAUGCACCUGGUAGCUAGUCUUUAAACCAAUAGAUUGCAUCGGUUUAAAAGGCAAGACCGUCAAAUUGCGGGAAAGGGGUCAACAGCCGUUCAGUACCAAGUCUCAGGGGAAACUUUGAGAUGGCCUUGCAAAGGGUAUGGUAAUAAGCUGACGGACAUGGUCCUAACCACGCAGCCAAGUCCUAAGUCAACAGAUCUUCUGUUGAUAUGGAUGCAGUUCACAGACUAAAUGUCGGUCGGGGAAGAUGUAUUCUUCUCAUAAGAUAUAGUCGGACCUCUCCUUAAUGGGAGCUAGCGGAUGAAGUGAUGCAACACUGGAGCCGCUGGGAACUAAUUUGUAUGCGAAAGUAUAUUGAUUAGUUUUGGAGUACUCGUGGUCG
Conditions: 30 °C
metric name: self-splicing fitness (ln)

UGGCAGCAAUAUUACGAGGC	-2.12
UUGGAGCAAUAUUACGUCCG	-2.22
CACUAGCAAUAUUACGGAGC	-4.52
AGCAAGCAAUAUUACGCCAU	-3.14
CUCCAGCAAUAUUACGUUAG	-2.15
GACAAGCAAUAUUACGGAUU	-2.16
AAAUAGCAAUAUUACGAGGU	-2.99
GAACAGCAAUAUUACGGAGC	-1.93

====

self-splicing fitness (ln) values by entry
Assay: self-splicing fitness, log relative to wild type (ln ratio); higher = more splicing; Tetrahymena group I intron in knt gene, E. coli kanamycin selection, DiMSum; sequences stand for … in CUCUCU…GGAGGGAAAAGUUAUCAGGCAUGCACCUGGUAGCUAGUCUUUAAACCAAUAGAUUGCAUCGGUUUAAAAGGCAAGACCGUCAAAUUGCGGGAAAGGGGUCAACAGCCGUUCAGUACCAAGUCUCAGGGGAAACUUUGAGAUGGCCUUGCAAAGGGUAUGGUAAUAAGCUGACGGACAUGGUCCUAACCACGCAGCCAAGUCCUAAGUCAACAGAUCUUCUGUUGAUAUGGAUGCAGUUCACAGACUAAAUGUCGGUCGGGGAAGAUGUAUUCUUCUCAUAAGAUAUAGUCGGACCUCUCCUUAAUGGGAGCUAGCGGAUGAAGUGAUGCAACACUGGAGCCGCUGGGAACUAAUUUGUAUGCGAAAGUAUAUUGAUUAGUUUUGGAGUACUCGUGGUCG
Settings: 30 °C
metric name: self-splicing fitness (ln)

AACAAGCAAUAUUACGGCGU	-0.173
GAUCAGCAAUAUUACGCUCU	-1.3
ACGUAGCAAUAUUACGGGCC	-2.66
UUGGAGCAAUAUUACGGUCU	-3.4
CCGCAGCAAUAUUACGUUUU	-3.13
ACGUAGCAAUAUUACGUUAC	-3.3
CAGUAGCAAUAUUACGAAAU	-2.86
ACGUAGCAAUAUUACGCUAU	-4.59
GUAUAGCAAUAUUACGAUGA	-1.62
GACGAGCAAUAUUACGGGGG	-3.65
CAGUAGCAAUAUUACGAUUC	-3.11
CGUUAGCAAUAUUACGUAAU	-2.88
CCACAGCAAUAUUACGCUAA	-3.8
UGUAAGCAAUAUUACGAGUG	-2.02
UAAGAGCAAUAUUACGGAAU	-3.52
GUUCAGCAAUAUUACGAUGA	-1.07
AGCAAGCAAUAUUACGGGGA	-2.7
UAGUAGCAAUAUUACGGCCU	-0.563
AAAAAGCAAUAUUACGGGAG	-2.11
GGUGAGCAAUAUUACGUCGA	-3.18
AGCUAGCAAUAUUACGGUAA	-2.34
UACAAGCAAUAUUACGGGAC	-2.61
CUUAAGCAAUAUUACGCGCA	-3.58
CGCGAGCAAUAUUACGGGCA	-0.464
CAGUAGCAAUAUUACGACGA	-1.39
UGUUAGCAAUAUUACGGCAG	0.45
AUAGAGCAAUAUUACGGGAC	-2.71
GGACAGCAAUAUUACGGUGC	-1.58
AAGUAGCAAUAUUACGCACC	-1.16
CUAAAGCAAUAUUACGAGCA	-3.41
GUUAAGCAAUAUUACGUAUA	-1.79
CUACAGCAAUAUUACGAACG	0.241
AUCUAGCAAUAUUACGCGCU	-1.97
UCGAAGCAAUAUUACGGGUU	-4.87

====

self-splicing fitness (ln) values by entry
Experiment: self-splicing fitness, log relative to wild type (ln ratio); higher = more splicing; Tetrahymena group I intron in knt gene, E. coli kanamycin selection, DiMSum; sequences stand for … in CUCUCU…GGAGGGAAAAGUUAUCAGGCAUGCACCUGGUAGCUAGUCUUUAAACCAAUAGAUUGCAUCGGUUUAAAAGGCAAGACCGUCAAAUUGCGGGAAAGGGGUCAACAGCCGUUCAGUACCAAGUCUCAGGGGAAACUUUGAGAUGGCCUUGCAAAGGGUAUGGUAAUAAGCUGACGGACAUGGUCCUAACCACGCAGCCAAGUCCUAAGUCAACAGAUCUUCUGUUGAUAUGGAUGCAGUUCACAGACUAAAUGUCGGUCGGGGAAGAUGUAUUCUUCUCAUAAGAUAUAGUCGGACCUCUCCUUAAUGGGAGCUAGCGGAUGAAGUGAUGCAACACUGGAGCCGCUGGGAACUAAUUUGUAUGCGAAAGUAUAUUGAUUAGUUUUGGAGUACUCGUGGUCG
Settings: 30 °C
metric name: self-splicing fitness (ln)

ACCUAGCAAUAUUACGCCCU	-0.142
GGCCAGCAAUAUUACGCUGA	-0.636
CCGAAGCAAUAUUACGGAGG	-4.7
CCCGAGCAAUAUUACGGUGC	-4.61
CAUUAGCAAUAUUACGCAUC	-2.71
AUUCAGCAAUAUUACGCUCA	-0.0142
GGAUAGCAAUAUUACGAUAU	-0.868
CCAGAGCAAUAUUACGGCUG	-1.9
UGCUAGCAAUAUUACGGCCU	0.151
GGCAAGCAAUAUUACGGAUA	-0.889
GUUUAGCAAUAUUACGAAUA	-1.58
CAAAAGCAAUAUUACGGCGC	-2.33
GGAGAGCAAUAUUACGACAC	-0.961
AGCUAGCAAUAUUACGAGCU	-2.65
AUCAAGCAAUAUUACGCGCU	-1.27
ACUUAGCAAUAUUACGGCAU	-1.01
